Origin of values: patent US4382088A

target.of.assay: aldose reductase (Bos taurus, UniProt P16116)
Construct: preparation of the enzyme from bovine lens; from tissue; host or cells: bovine lens
method: in vitro aldose reductase inhibition (modified Hayman and Kinoshita procedure, enzyme from bovine lens)
Assay type: biochemical
condition.notes: 10^-5 molar, read-out: % Inhibition at Different Molar Concentrations (in vitro), 10^-5
Each record here notes measured inhibition at 10 µM.
Your answer should be a plain number; it is taken to be in %.

Here's what some known entries look like.
Entry O=C(O)COc1cc2c(=O)c(C(=O)O)cn(CC(=O)O)c2ccc1=O [Example 7 (R^3 = OCH2 COOH), monohydrate] : reported inhibition at 10 µM = ?
97

Look at this compound and give its reported inhibition at 10 µM. COc1cc2c(=O)c(C(=O)O)cn(CC(=O)O)c2ccc1=O [Example 7 (R^3 = OCH3)]
89

Please look up its inhibition at 10 µM: "O=C(O)Cn1cc(C(=O)O)c(=O)c2cc(OCc3ccccc3)c(=O)ccc21"
88

# next compound below
// lookup inhibition at 10 µM for CCOC(=O)COc1cc2c(=O)c(C(=O)OCC)cn(CC(=O)OCC)c2ccc1=O [Example 5 (R^3 = OCH2 COOC2 H5)]
40
